Measured EC50 accompanies every entry in the list below.
- target of assay: DOR (Homo sapiens, UniProt P41143)
- Sequence (P41143 whole entry): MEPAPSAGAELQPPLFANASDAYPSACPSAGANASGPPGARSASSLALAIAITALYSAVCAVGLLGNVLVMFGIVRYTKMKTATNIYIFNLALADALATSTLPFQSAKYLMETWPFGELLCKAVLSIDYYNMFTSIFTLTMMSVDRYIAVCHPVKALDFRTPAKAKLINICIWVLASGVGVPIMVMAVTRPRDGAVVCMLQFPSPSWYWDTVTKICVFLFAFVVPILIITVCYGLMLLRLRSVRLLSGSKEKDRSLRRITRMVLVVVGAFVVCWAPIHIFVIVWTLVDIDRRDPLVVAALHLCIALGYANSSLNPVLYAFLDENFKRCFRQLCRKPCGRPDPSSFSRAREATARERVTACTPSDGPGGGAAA
- experiment: [35S]GTPγS binding assay, CHO-hDOR membranes
- setup conditions: [35S]GTPγS, CHO human DOR membranes
Just the number please, in nM, no unit attached.

Find the recorded EC50 belonging to CO[C@@]12CC[C@@H](N[C@H](C(=O)N[C@@H](Cc3ccc(O)cc3)C(=O)O)C(C)C)[C@@H]3Oc4c(O)ccc5c4[C@@]31CCN(C)[C@@H]2C5 [Compound 22b] and report it.
1.56

====

- target of assay: KOR (Homo sapiens)
- Construct: host or cells: CHO (CHO-hKOR)
- Sequence (P41145 whole entry): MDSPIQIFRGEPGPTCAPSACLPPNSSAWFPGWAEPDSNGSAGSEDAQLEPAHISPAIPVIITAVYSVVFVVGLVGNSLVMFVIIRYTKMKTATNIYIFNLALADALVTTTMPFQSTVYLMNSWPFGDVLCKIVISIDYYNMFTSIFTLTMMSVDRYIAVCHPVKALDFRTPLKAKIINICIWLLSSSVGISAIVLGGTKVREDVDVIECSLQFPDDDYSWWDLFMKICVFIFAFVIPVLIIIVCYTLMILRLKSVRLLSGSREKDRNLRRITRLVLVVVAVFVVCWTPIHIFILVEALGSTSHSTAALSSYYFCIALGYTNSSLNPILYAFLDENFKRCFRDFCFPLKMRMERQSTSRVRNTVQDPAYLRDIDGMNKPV
- experiment: [35S]GTPγS binding assay, CHO-hKOR membranes
- Type: biochemical
- setup conditions: relative to reference full agonist U69,593; read-out: KOR % stim.
Reported Emax values are given for each entry in this list.

Need Emax of CO[C@@]12CC[C@@H](N[C@H](C(=O)N[C@@H](Cc3ccc(O)cc3)C(=O)O)C(C)C)[C@@H]3Oc4c(O)ccc5c4[C@@]31CCN(C)[C@@H]2C5 [Compound 22b] , thanks.
63%

Can you share its Emax? I mean this compound: CO[C@@]12CC[C@@H](N[C@@H](CCC(=O)O)C(=O)O)[C@@H]3Oc4c(O)ccc5c4[C@@]31CCN(C)[C@@H]2C5.Cl.Cl [Compound 14b]
76%

Need Emax, item CO[C@@]12CCC(=O)[C@@H]3Oc4c(O)ccc5c4[C@@]31CCN(C)[C@@H]2C5 [Compound 1, 14-O-methyloxymorphone, reference compound]
77%
